The measurements presented in this section are drawn from patent US9295671B2.

inhibition at 1 µM values by entry
molecular target: BRAF V600E (Homo sapiens, UniProt P15056, V600E); construct: purchased Invitrogen; experiment: Z′-LYTE kinase assay, BRAF V600E (Invitrogen); type: biochemical; conditions: Z′-LYTE method
Sequence (P15056 whole entry V600E): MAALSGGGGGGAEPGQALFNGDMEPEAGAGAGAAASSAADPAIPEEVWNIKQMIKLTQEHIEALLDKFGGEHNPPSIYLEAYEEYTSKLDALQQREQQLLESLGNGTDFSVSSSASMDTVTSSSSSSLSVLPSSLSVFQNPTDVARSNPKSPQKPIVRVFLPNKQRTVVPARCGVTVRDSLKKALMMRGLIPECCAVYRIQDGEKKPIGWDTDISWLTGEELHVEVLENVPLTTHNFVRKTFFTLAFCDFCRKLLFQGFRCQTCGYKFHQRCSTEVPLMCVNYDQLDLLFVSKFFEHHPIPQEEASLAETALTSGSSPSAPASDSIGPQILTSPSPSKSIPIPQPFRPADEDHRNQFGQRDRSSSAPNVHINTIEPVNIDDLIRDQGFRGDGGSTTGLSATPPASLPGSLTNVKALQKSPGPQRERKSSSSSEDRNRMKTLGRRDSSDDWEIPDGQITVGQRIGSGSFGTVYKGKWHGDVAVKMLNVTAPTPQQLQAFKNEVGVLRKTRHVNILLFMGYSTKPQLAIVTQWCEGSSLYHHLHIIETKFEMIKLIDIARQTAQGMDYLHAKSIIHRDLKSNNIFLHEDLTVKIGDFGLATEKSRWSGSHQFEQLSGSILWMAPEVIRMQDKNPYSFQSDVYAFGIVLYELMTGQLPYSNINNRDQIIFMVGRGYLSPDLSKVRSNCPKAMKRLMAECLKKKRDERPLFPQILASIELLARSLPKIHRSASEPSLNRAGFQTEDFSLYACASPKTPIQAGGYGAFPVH

Sample answers from the record:
>>> measured_value("CCCS(=O)(=O)Nc1ccc(F)c(C(=O)c2ccc3nccnc3c2)c1 [Compound C15]")
"< 70%"
>>> measured_value("CCCS(=O)(=O)Nc1ccc(F)c(C(=O)c2ccc3nccnc3c2)c1Cl [Compound C06]")
"> 89%"
>>> measured_value("CCCS(=O)(=O)Nc1cc(F)c(F)c(C(=O)c2ccc3ncc(N4CCOCC4)nc3c2)c1 [Compound C37]")
"70 to 89%"

Summary for this compound, CCCS(=O)(=O)Nc1cc(F)cc(C(=O)c2ccc3ncc(N4CCOCC4)nc3c2)c1 [Compound C18] : inhibition at 1 µM is < 70%

----------
Entries with reported IC50 on BRAF (Homo sapiens)
Sequence (P15056 whole entry): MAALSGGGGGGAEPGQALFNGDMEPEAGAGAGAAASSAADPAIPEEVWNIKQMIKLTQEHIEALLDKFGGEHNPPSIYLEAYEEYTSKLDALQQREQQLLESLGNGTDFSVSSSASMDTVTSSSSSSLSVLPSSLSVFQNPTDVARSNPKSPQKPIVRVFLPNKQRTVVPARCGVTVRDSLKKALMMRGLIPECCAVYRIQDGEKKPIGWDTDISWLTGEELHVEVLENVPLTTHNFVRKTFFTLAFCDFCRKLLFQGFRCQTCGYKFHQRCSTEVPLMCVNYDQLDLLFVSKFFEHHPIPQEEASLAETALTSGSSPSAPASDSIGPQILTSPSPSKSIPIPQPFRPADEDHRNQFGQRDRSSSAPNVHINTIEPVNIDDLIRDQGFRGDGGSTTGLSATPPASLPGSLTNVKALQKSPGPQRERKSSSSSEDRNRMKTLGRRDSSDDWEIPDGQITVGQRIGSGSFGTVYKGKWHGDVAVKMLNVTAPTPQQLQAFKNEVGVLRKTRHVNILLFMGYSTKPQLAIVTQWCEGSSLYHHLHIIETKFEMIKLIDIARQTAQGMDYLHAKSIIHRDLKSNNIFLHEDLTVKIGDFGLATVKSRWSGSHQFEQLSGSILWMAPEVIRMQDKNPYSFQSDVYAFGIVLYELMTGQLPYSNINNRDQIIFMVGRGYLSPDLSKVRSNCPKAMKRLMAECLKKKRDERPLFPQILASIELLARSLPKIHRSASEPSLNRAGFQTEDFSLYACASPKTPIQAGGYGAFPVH

Here's what some known entries look like.
>>> measured_value("CCCS(=O)(=O)Nc1cc(F)c(F)c(C(=O)c2ccc3ncc(-c4ccc(F)cc4)nc3c2)c1F")
"100 to 1000 nM"
>>> measured_value("CCCS(=O)(=O)Nc1cc(F)c(F)c(C(=O)c2ccc3ncc(C#N)nc3c2)c1F")
"50 to 100 nM"
>>> measured_value("CCCS(=O)(=O)Nc1cc(F)c(F)c(C(=O)c2ccc3ncc(-c4cccnc4)nc3c2)c1F")
"< 50 nM"
>>> measured_value("CCCS(=O)(=O)Nc1cc(F)c(F)c(C(=O)c2ccc3ncc(-c4ccncc4)nc3c2)c1F")
"< 50 nM"
>>> measured_value("CCCS(=O)(=O)Nc1cc(F)c(F)c(C(=O)c2ccc3ncc(-n4cnc(C)c4)nc3c2)c1F")
"< 50 nM"
>>> measured_value("CCCS(=O)(=O)Nc1cc(F)c(F)c(C(=O)c2ccc3ncc(OCCOC)nc3c2)c1F")
"50 to 100 nM"

# context switch: different compound, same IC50
The observed IC50 for CCCS(=O)(=O)Nc1cc(F)c(F)c(C(=O)c2ccc3ncc(N4CCNCC4)nc3c2)c1F when tested with BRAF (Homo sapiens) stands at < 50 nM

----------
Measured IC50, listed per entry.
target: BRAF V600E (Homo sapiens, UniProt P15056, V600E); experiment: LanthaScreen kinase assay, BRAF V600E; conditions: ATP 10 μM

Study these solved cases before continuing.
>>> measured_value("CCCS(=O)(=O)Nc1cc(F)c(F)c(C(=O)c2ccc3ncc(-c4cccnc4)nc3c2)c1F")
"< 50 nM"
>>> measured_value("CCCS(=O)(=O)Nc1cc(F)c(F)c(C(=O)c2ccc3ncc(C#N)nc3c2)c1F")
"< 50 nM"
>>> measured_value("CCCS(=O)(=O)Nc1cc(F)c(F)c(C(=O)c2ccc3ncc(-c4ccc(F)cc4)nc3c2)c1F")
"50 to 100 nM"
>>> measured_value("CCCS(=O)(=O)Nc1cc(F)c(F)c(C(=O)c2ccc3ncc(OCCOC)nc3c2)c1F")
"50 to 100 nM"
>>> measured_value("CCCS(=O)(=O)Nc1cc(F)c(F)c(C(=O)c2ccc3ncc(-c4ccncc4)nc3c2)c1F")
"< 50 nM"
>>> measured_value("CCCS(=O)(=O)Nc1cc(F)c(F)c(C(=O)c2ccc3ncc(-n4ccnc4)nc3c2)c1F")
"< 50 nM"

# evaluate next
What the record says about CCCS(=O)(=O)Nc1cc(F)c(F)c(C(=O)c2ccc3ncc(-n4cnc(C)c4)nc3c2)c1F : IC50 is < 50 nM
